Source of measurements: patent US5441962A

# assay method text: in vivo
# measurement conditions: mouse, in vivo, po, male mice, average
measured endpoint: LD50 (mg/kg)
Answer in mg/kg, number only, no unit symbol.

Cl.Cn1cc(OCC(O)CNC(C)(C)C)c2ccccc2c1=O (racemic): 1390

Then there is this compound:
Request: Consider the compound shown here: CC(C)(C)NCC(O)COc1c[nH]c(=O)c2ccccc12 (centres unmarked) What is its recorded LD50?
Response: 1390
